Target: T1, Recombinant Human FGFR2 alpha (IIIc) Fc Chimera Protein, CF (R&D systems, 712-FR-050) (human, UniProt P21802 22-377)
T1 construct: bought; not shown: Fc part of the chimera
T1 sequence (P21802 22-377, change not shown): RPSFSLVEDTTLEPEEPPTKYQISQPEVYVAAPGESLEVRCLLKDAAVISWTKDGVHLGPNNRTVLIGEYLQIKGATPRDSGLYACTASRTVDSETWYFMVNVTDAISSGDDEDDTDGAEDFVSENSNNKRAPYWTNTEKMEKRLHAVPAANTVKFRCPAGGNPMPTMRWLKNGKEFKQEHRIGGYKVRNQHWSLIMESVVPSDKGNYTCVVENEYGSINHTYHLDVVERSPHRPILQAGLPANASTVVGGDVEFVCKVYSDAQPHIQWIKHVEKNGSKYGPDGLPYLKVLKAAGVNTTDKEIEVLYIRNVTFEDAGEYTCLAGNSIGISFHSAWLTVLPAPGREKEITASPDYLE
Assay: ELISA on plate-bound FGFR2-Fc
Bridge positions count the residues as written; N and C are the ends. Ends that are not written are not given here. COCH2 = acetyl group that carries the bridge
Parameter measured: ELISA luminescence signal at 10 nmol/L peptide, relative to SEQ ID NO: 47 (=1)

Here are 5 binders together with their reported answers.
[
  {
    "Binder": "QCRYFWQYVLERYRVRLPK(COCH2)E (thioether 2-19) [cyclic peptide SEQ ID NO: 119]",
    "Result value": "≥ 0.7 ratio"
  },
  {
    "Binder": "YCRDNYFYLEQWQYLYLYK(COCH2)H (thioether 2-19) [cyclic peptide SEQ ID NO: 125]",
    "Result value": "≥ 0.7 ratio"
  },
  {
    "Binder": "VCNENNWSRSQYHFFLQYK(COCH2)Y (thioether 2-19 (inferred)) [cyclic peptide SEQ ID NO: 52]",
    "Result value": "0.1 to 0.5 ratio"
  },
  {
    "Binder": "YCEENYLDPEQMQYFIYFK(COCH2)Y (thioether 2-19) [cyclic peptide SEQ ID NO: 355]",
    "Result value": "0.1 to 0.5 ratio"
  },
  {
    "Binder": "QCENWVNSTQFEFFWQYK(COCH2)T (thioether 2-18) [cyclic peptide SEQ ID NO: 122]",
    "Result value": "0.5 to 0.7 ratio"
  }
]

Query: ELISA luminescence signal at 10 nmol/L peptide, relative to SEQ ID NO: 47 (=1); subject: YCEENYLDPEQYQYFFYFK(COCH2)Y (thioether 2-19 (inferred)) [cyclic peptide SEQ ID NO: 280]
≥ 0.7 ratio

Query: ELISA luminescence signal at 10 nmol/L peptide, relative to SEQ ID NO: 47 (=1); subject: YCEENYLDPEQYQYFILFK(COCH2)Y (thioether 2-19 (inferred)) [cyclic peptide SEQ ID NO: 293]
≥ 0.7 ratio

Query: ELISA luminescence signal at 10 nmol/L peptide, relative to SEQ ID NO: 47 (=1); subject: YCEENYLDPEQYQYFSYFK(COCH2)Y (thioether 2-19 (inferred)) [cyclic peptide SEQ ID NO: 285]
≥ 0.7 ratio

Query: ELISA luminescence signal at 10 nmol/L peptide, relative to SEQ ID NO: 47 (=1); subject: YCEENYLDPKQYQYFIYFK(COCH2)Y (thioether 2-19; not fully specified; printed as Y-(C)-EENYLDPKQYQYFIYF-(K(acetyl))-Y) [cyclic peptide SEQ ID NO: 342]
≥ 0.7 ratio

Query: ELISA luminescence signal at 10 nmol/L peptide, relative to SEQ ID NO: 47 (=1); subject: ECLGNYFSHEQYQYLLQYK(COCH2)I (thioether 2-19) [cyclic peptide SEQ ID NO: 133]
≥ 0.7 ratio

Query: ELISA luminescence signal at 10 nmol/L peptide, relative to SEQ ID NO: 47 (=1); subject: LCPVPQQTDYLRWYQIIHK(COCH2)Q (thioether 2-19) [cyclic peptide SEQ ID NO: 118]
0.1 to 0.5 ratio

Query: ELISA luminescence signal at 10 nmol/L peptide, relative to SEQ ID NO: 47 (=1); subject: YCEENSLDPEQYQYFIYFK(COCH2)Y (thioether 2-19 (inferred)) [cyclic peptide SEQ ID NO: 191]
0.1 to 0.5 ratio
